- Tested on: Staphylococcus sp.
- Assay Method Text: In vitro antibacterial evaluation: minimum inhibitory concentration (MIC), broth dilution method
- Type: cell-based
- Assay Conditions: strain GC 4546
Parameter: MIC Staphylococcus haemolyticus (GC 4546). Scope: all listed entries.
The figure you give is taken to be in µg/mL; do not add the unit.

CC(C1CCCCC1)C1NC(=O)CNC(=O)C(CO)NC(=O)C(C(O)C2CNC(=N)N2C2OC(CO)C(O)C(O)C2O)NC(=O)C(C(O)C2CNC(=N)N2)NC(=O)C(Cc2ccc(OC3OC(CO)C(OC4OC5COC(c6ccccc6)OC5C(O)C4O)C(O)C3O)cc2)NC1=O (centres unmarked)
0.25

Could you now consider this next compound?
// output MIC Staphylococcus haemolyticus (GC 4546); input CC(c1ccccc1)C1NC(=O)CNC(=O)C(CO)NC(=O)C(C(O)C2CNC(=N)N2C2OC(CO)C(O)C(O)C2O)NC(=O)C(C(O)C2CNC(=N)N2)NC(=O)C(Cc2ccc(OC3OC(CO)C(OC4OC5COC6(OC5C(O)C4O)C4CCCC6CCC4)C(O)C3O)cc2)NC1=O (centres unmarked) ; system Staphylococcus sp.
2

---

- System: Staphylococcus sp.
- Assay Method Text: In vitro antibacterial evaluation: minimum inhibitory concentration (MIC), broth dilution method
- Format: cell-based
- Assay Conditions: strain GC 3051
Reported Property: MIC Staphylococcus aureus (GC 3051) (mg/L)
Provide only the numeric value, understood in mg/L.

N=C1NCC(C(O)C2NC(=O)C(Cc3ccc(OC4OC(CO)C(OC5OC(CO)C(O)C6OC7(OC56)C5CC6CC(C5)CC7C6)C(O)C4O)cc3)NC(=O)C(CC3CCCCC3)NC(=O)CNC(=O)C(CO)NC(=O)C(C(O)C3CNC(=N)N3C3OC(CO)C(O)C(O)C3O)NC2=O)N1 (centres unmarked) [Example 106a]
2

Pending compound:
Identify measured MIC Staphylococcus aureus (GC 3051) corresponding to CC(c1ccccc1)C1NC(=O)CNC(=O)C(CO)NC(=O)C(C(O)C2CNC(=N)N2C2OC(CO)C(O)C(O)C2O)NC(=O)C(C(O)C2CNC(=N)N2)NC(=O)C(Cc2ccc(OC3OC(CO)C(OC4OC5COC(Cc6ccccc6)OC5C(O)C4O)C(O)C3O)cc2)NC1=O (centres unmarked)
1

---

- Test system: Streptococcus sp.
- Assay Method Text: In vitro antibacterial evaluation: minimum inhibitory concentration (MIC), broth dilution method
- Format: cell-based
- Assay Conditions: Streptococcus pneumoniae (GC 4565); broth dilution, 18 hours at 35° C.
Reported Property: MIC Streptococcus pneumoniae (GC 4565)
Answer format: number, then unit.

CC(c1ccccc1)C1NC(=O)CNC(=O)C(CO)NC(=O)C(C(O)C2CNC(=N)N2C2OC(CO)C(O)C(O)C2O)NC(=O)C(C(O)C2CNC(=N)N2)NC(=O)C(Cc2ccc3oc(-c4cccc([N+](=O)[O-])c4)nc3c2)NC1=O (centres unmarked) [Example 26]
32 µg/mL

Let us examine a further case.
Query MIC Streptococcus pneumoniae (GC 4565) for CC(c1ccccc1)C1NC(=O)CNC(=O)C(CO)NC(=O)C(C(O)C2CNC(=N)N2C2OC(CO)C(O)C(O)C2O)NC(=O)C(C(O)C2CNC(=N)N2)NC(=O)C(Cc2ccc3oc(-c4ccc(OCc5ccccc5)cc4)nc3c2)NC1=O (centres unmarked) [Example 31]
64 µg/mL
